Biological target: Kappa-type opioid receptor (Homo sapiens, UniProt P41145)
Sequence (P41145 whole entry): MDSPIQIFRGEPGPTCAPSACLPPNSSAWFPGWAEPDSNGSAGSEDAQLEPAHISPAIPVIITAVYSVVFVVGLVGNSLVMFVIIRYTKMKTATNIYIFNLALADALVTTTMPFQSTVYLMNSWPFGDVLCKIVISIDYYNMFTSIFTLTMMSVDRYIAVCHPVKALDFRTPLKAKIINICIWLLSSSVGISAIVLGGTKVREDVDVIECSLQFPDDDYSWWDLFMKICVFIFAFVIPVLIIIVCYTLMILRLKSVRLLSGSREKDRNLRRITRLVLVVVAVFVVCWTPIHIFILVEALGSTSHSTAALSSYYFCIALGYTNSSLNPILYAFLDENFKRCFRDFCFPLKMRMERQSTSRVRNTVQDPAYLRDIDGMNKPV
Type: functional
pIC50: −log10 of the molar value.
Reported pIC50 values follow for various compounds

Check out these entries, answers already filled in.
[[record]]
test_smiles = "Cc1nc2scc(-c3ccccc3)c2c(=O)n1N=C1C=CC(=O)C=C1"
observed_result = 4.78

[[record]]
test_smiles = "COc1ccc(C)cc1N=Nc1ccc(O)c2ncccc12"
observed_result = "< 4.49"


Below: the item to evaluate.
Which value of pIC50 has been reported for `Cc1sc(Cc2nc(O)cs2)nc1-c1ccccc1` in the records?
< 4.49

----------
Target: cAMP-dependent protein kinase catalytic subunit alpha (Homo sapiens)
Type: functional
Active and inactive are the calls of the source.
QUANTITY_MEASURED: Ki

Check out these entries, answers already filled in.
[[record]]
test_smiles = "NNc1cc(N2CCOCC2)nc(OCCc2ccccn2)n1"
observed_result = "> 3980 nM (inactive)"

[[record]]
test_smiles = "Nc1n[nH]c2ccc(-c3cc(Cc4ccccc4)no3)cc12"
observed_result = "316 nM (active)"


Which value of Ki has been reported for `Cc1ccc(Nc2nccc(Nc3ccccc3C(=O)O)n2)cc1F` in the records?
> 7940 nM (inactive)

And `COCCNc1cc(-c2c[nH]c3ncccc23)cc(Cl)n1` ?
158 nM (active)
